Tested on: MS2 coat protein
Assay: apparent KD of MS2 coat protein; designed switch direction (-1 OFF switch, 1 ON switch): -1; higher = weaker reporter binding
Conditions: input ligand: none
Listing: apparent KD of MS2 coat protein of selected sequences

Sequence Data	Assay Target	apparent KD of MS2 coat protein
ACUCGACAUGAGGAUCACCCAUGUGAGGAUAUGGCCUGUAUGGCGUGAGCUGGCUAAAUCAGAAGGCGCGUGGG [salish99_ex1_r4_049] (Eterna round: R97, puzzle: Exclusion 1)	MS2 coat protein	194 nM
CCGCUACAUGAGGAUCACCCAUGUCAGGAUAUCGUACGUUCGUCGAUAGACGAUCGUACGAGAAGGGUGAGCGG [Mat - Exclusion 1 - Eli Mod - D37] (Eterna round: R97, puzzle: Exclusion 1)	MS2 coat protein	209 nM
AUCAGCUCGUCAGGAUAUGAACAUGAGGAUCACCCAUGUAAGAUCAAGCUGCUUCGGCAGCAAGUUCAGAAGGGACGAGCUGAU [ENG2/10-B3] (Eterna round: R96, puzzle: Exclusion NG 2)	MS2 coat protein	112 nM
GGAGAGAGAGGAUAUGGAGGUUGGAACAUGAGGAUCACCCAUGUUAAACCUCAUGACCGACUAGAAGGCUCAGUCC [AK-MS2ROC-r4-exclusion5-9.1] (Eterna round: R97, puzzle: Exclusion 5)	MS2 coat protein	18.9 nM
CUGAGCUGAGGAUAUACAUGAGGAUCACCCAUGUUUUGUAGCUAGUGAAGAAGUAGAUGUAGAAGGCAGUUCGG [Mod of JL 25 - Jieux - Exclusion 3] (Eterna round: R97, puzzle: Exclusion 3)	MS2 coat protein	72.8 nM

====

Tested on: MS2 coat protein
Assay: apparent KD of MS2 coat protein; designed switch direction (-1 OFF switch, 1 ON switch): -1; higher = weaker reporter binding
Details: input ligand: none

Sequence Data	Assay Target	Units Of Measure	apparent KD of MS2 coat protein
CGUAGCAAAGUGAGGAUAUCUAGAGCGAUAGCUCUAGAGAAGGCACAUGAGGAUCACCCAUGUGAUUAGCUACG [BmEx4/9-A4] (Eterna round: R97, puzzle: Brourd's mod of Exclusion 4)	MS2 coat protein	nM	27.8
AGUCGAAAGACAAAAACAGACAUGAGGAUCACCCAUGUAAAGGGUGAACAAGCCACCCGCUCGUCUUAAAAAAAAAA [Mat - Sensor v2 - JL mod - D25] (Eterna round: R96, puzzle: Sensor v2, turn-off variant)	MS2 coat protein	nM	114
CGGUGUAGAGGAUAUACGUGGAUGUAAAUUCAUGAUAUUUUACAUGAGGAUCACCCAUGUAGAAGGCUAUAGCG [JR_Ex2_Sub078] (Eterna round: R97, puzzle: Exclusion 2)	MS2 coat protein	nM	229
GUACUGACAGGAUAUACAUGAGGAUCACCCAUGUGCCUUAUCGCUACAAAAGUAGCGGGUAGAAGGGUCUGUAC [Omei Ex3 Model Bachelor's Dilema v19] (Eterna round: R97, puzzle: Exclusion 3)	MS2 coat protein	nM	16.4
AAGAAGAUCGGAGGAUAUGGAGCUGAAACGGCGCUAGAAGGCCGUCUAGUGUAACAUGAGGAUCACCCAUGUAGGGACCUCUAA [EX ng 1 4.2] (Eterna round: R96, puzzle: Exclusion NG 1)	MS2 coat protein	nM	558
